testSystem: germline 4E10
test: SPR
measuredProperty: pKd
Scale: negative log10 of molar concentration, which is what pKd denotes.

Known pKd results, listed for orientation:
>>> resultvalue("10E8_T117v2-1_RSF1 (designed binder) NAMAGIVFRKHYVRHLGKTVTQNEIIRALAAPLISDGMVVKDFADHVIKREEQNPTGLPVQPVGVAIPHTDSKYVYYNAISVGILQEPVAFEDAGGDGRPVPVRVVFMLALGNWFDITNVLWWIKAVIQDDEFMKRLLYMTDDKIYESIRKRIYDLE")
10.00
>>> resultvalue("10E8_T117v2-4 (designed binder) NAMQGIHFRRHYVRHLPKEVSQNDIIKALASPLINDGMVVSDFADHVITREQNFPTGLPVEPVGVAIPHTDSKYVRQNAISVGILAEPVNFEDAGGEPDPVPVRVVFMLALGNWFDISRVLWWIKAVIQDEDFMQQLLVMNDDEIYQSIYTRISELEHHHHHH")
8.49

Lookup: Value lookup for pKd; key = 10E8_T117v2-1 (designed binder) NAMQGIHFRRHYVRHLPKEVSQNDIIKALASPLINDGMVVSDFADHVITREQNFPTGLPVEPVGVAIPHTDSKYVRQNAISVGILAEPVNFEDAGGEPDPVPVRVVFMLALGNWFDITNVLWWIKAVIQDEDFMQQLLVMNDDEIYQSIYTRISELEHHHHHH
Found: 9.73

Lookup: Need pKd of 10E8_T117v2-1_g28_g91012 (designed binder, added N-linked glycosylation sites (glycan-masked)) NAMQGIHFRRHYVRHLPKNVSQNDIIKALASPLINDGMVVSDFADHVITRENNSPTGLPVEPVGVAIPHTDSKYVNQSAISVGILAEPVNFEDANGTPDPVPVRVVFMLALGNWFDITNVLWWIKAVIQDEDFMQQLLNMSDDEIYQSIYTRISE , thanks.
Found: 9.30
